Target: Gal(b1-4)Glc6S
Assay: glycan array binding signal (z-score within array); higher = stronger binding
Conditions: glycan notation: IUPAC condensed, linker removed
Many of the other results were omitted from the sample, so the strongest signals are more common in it than they were.

Binder	glycan array binding signal (z-score)
MIG/CXCL9 (Homo sapiens) (protein) TPVVRKGRCSCISTNQGTIHLQSLKDLKQFAPSPSCEKIEIIIATLKNGVQTCLNPDSADVKELIKKTEKQVSQKKKQKNGKKHQKKKVLKVRKSQRSRQKKTT	0.015
HML-Native (Hypnea musciformis), P84871 (protein) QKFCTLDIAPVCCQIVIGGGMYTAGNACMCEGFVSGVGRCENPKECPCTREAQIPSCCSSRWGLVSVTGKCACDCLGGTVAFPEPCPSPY	-0.313
Protectin (Homo sapiens), P13987 (protein) MGIQGGSVLFGLLLVLAVFCHSGHSLQCYNCPNPTADCKTAVNCSSDFDACLITKAGLQVYNKCWKFEHCNFNDVTTRLRENELTYYCCKKDLCNFNEQLENGGTSLSEKTVLLLVTPFLAAAWSLHP	0.209
